Assay notes: Oral bioavailability in rat at 1 mg/kg
Assay type: ADME, organism-based
Condition notes: in vivo

{"Structure smiles": "CCOC(=O)N1CCC(C)(CN2CCC3(CC2)CN(S(C)(=O)=O)c2ncccc23)CC1", "bioavailability (%)": 49}

---

Measured pEC50 of individual entries
Target or system: Muscarinic acetylcholine receptor M4 (Homo sapiens)
Sequence (P08173 whole entry): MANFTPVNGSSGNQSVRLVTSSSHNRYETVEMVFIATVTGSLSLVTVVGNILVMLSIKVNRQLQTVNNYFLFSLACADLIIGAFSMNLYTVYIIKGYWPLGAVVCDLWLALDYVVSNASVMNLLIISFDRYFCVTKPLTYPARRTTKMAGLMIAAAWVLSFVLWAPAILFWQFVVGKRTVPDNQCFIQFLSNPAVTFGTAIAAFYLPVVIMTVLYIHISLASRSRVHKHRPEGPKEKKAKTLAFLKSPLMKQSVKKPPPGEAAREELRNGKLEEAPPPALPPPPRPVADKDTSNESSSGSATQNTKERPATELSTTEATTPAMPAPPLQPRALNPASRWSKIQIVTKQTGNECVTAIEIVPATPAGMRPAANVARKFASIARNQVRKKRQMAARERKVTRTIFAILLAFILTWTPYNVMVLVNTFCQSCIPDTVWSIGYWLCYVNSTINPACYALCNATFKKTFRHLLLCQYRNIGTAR
Assay notes: Agonist activity at human muscarinic acetylcholine receptor M4 expressed in CHO cells assessed as calcium mobilization by FLIPR assay
pEC50: −log10 of the molar value.

{"Structure smiles": "CCOC(=O)N1CCC(CN2CCC3(CC2)CN(S(C)(=O)=O)c2ncccc23)CC1", "pEC50": 7.03}
{"Structure smiles": "CCOC(=O)N1CCC(C)(CN2CCC3(CC2)CN(S(C)(=O)=O)c2ncccc23)CC1", "pEC50": 7.89}

---

Target or system: UniProt:P08173
Assay notes: Agonist activity at human muscarinic acetylcholine receptor M4 expressed in CHO cells assessed as calcium mobilization at 0.3 uM by FLIPR assay relative to acetylcholine
Format: functional, cell-based
Measured Emax of individual entries

{"Structure smiles": "CCOC(=O)N1CCC(CN2CCC3(CC2)CN(S(C)(=O)=O)c2ncccc23)CC1", "Measure unit": "%", "Emax": 88}
{"Structure smiles": "COC(=O)N1CCC(C)(CN2CCC3(CC2)CN(S(C)(=O)=O)c2ncccc23)CC1", "Measure unit": "%", "Emax": 52}
{"Structure smiles": "CC(C)OC(=O)N1CCC(C)(CN2CCC3(CC2)CN(S(C)(=O)=O)c2ncccc23)CC1", "Measure unit": "%", "Emax": 3}
{"Structure smiles": "CCOC(=O)N1[C@@H]2CC[C@H]1C[C@H](CN1CCC3(CC1)CN(S(C)(=O)=O)c1ncccc13)C2", "Measure unit": "%", "Emax": 4}
{"Structure smiles": "CCOC(=O)N1CCC(C)(CN2CCC3(CC2)CN(S(C)(=O)=O)c2ncccc23)CC1", "Measure unit": "%", "Emax": 94}
{"Structure smiles": "CC1(CN2CCC3(CC2)CN(S(C)(=O)=O)c2ncccc23)CCN(C(=O)OC(C)(C)C)CC1", "Measure unit": "%", "Emax": 2}
